# AUC listing for each entry below
experiment: PK, intravenous administration; format: in vivo, male Sprague Dawley rats; details: male, Sprague Dawley, plasma; rat, intravenous, dose 1 mg/kg; read-out: AUC
Counter-ions that a name gives are not always drawn.
Reply with just the number (in ng·h/mL).

Worked set:
| COMPOUND | UNIT_ABBREVIATION | AUC |
| --- | --- | --- |
| O=C(Nc1c2c(cc3c1CCC3)CCC2)NS(=O)(=O)C1CN(C2CCCC2)C1 [Example 99, potassium salt] | ng·h/mL | 1670 |
| CCCN1CC(S(=O)(=O)NC(=O)Nc2c3c(cc4c2CCC4)CCC3)C1 [Example 76, potassium salt] | ng·h/mL | 2650 |
| CC(C)N1CCC(S(=O)(=O)NC(=O)Nc2c3c(cc4c2CCC4)CCC3)C1 (stereo not drawn) [Example 41, potassium salt] | ng·h/mL | 1850 |

Turning now to a further record.
### Prompt // returns reported AUC for input CC(C)N1CC(S(=O)(=O)NC(=O)Nc2c3c(cc4c2CCC4)CCC3)C1 [Example 46, potassium salt]
### Response 2080

====

# IC50 listing for each entry below
biological target: NLRP3 (Homo sapiens (Human)); assay: Human whole blood IL1β release assay (LPS + nigericin); assay type: cell-based; details: human whole blood, 1 μg/ml LPS, nigericin, IL-1β release; read-out: HWB IC50
Sequence (Q96P20 whole entry): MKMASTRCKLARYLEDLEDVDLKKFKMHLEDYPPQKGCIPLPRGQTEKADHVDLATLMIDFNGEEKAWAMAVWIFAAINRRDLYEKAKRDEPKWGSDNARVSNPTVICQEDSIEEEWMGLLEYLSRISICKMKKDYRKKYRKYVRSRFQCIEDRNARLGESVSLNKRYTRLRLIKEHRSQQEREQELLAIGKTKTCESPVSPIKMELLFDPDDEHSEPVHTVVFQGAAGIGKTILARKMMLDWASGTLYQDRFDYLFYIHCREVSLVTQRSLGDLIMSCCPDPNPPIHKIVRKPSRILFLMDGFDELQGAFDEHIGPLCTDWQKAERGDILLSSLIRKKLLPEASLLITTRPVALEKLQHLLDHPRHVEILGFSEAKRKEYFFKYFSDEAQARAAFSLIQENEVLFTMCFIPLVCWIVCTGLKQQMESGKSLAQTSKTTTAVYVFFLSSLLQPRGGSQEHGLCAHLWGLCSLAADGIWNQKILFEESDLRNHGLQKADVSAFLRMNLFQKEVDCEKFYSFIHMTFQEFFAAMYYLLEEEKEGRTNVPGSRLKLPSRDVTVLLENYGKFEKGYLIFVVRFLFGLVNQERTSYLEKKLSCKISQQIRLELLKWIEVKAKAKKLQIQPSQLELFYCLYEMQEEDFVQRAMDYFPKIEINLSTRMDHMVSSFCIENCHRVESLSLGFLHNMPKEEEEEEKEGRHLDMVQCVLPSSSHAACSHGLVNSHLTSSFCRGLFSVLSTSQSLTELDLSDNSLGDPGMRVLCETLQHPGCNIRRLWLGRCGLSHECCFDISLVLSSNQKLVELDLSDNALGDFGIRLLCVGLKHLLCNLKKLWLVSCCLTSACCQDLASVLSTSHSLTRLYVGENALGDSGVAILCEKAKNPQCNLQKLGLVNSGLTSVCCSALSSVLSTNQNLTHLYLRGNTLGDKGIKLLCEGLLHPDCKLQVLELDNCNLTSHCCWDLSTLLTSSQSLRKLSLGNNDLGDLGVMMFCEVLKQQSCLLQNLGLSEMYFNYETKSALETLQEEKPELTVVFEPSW
Structures can show the parent of a compound that is named as a salt.

Worked set:
| MOLECULE | EXPERIMENTAL_RESULT |
| --- | --- |
| CC(C)c1cc(F)cc(-c2ccnc(C#N)c2)c1NC(=O)NS(=O)(=O)c1ccc(=O)n(C(C)C)c1 | < 1000 nM |
| CC(CO)N1CC(S(=O)(=O)NC(=O)Nc2c3c(cc4c2CCC4)CCC3)C1 (centres unmarked) [Example 130, potassium salt] | < 1000 nM |
| CCN1CCCC(S(=O)(=O)NC(=O)Nc2c3c(cc4c2CCC4)CCC3)C1 (centres unmarked) [Example 9, potassium salt] | < 1000 nM |
| COc1cc(-c2ccc3c(c2NC(=O)NS(=O)(=O)c2ccc(=O)n(C(C)C)c2)CCC3)ccn1 | < 1000 nM |
| O=C(Nc1c2c(cc3c1CCC3)CCC2)NS(=O)(=O)C1CN(CC(F)(F)F)C1 [Example 96, potassium salt] | 1000 to 10000 nM |

### Prompt // returns reported IC50 for input CCN1CC(S(=O)(=O)NC(=O)Nc2c3c(cc4c2CCC4)CCC3)C1 [Example 53, potassium salt]
### Response < 1000 nM

### Prompt Please give the result for O=C(Nc1c2c(cc3c1CCC3)CCC2)NS(=O)(=O)C1CN(CC2CCCO2)C1 (centres unmarked) [Example 145, potassium salt] too.
### Response 1000 to 10000 nM

### Prompt Please give the result for `COc1cc(-c2ccc3c(c2NC(=O)NS(=O)(=O)C2CN(C(C)C)C2)CCC3)ccn1` too.
### Response < 1000 nM

### Prompt Please give the result for CC(C)NC(=O)N1CCC(S(=O)(=O)NC(=O)Nc2c3c(cc4c2CCC4)CCC3)CC1 [Example 5, potassium salt] too.
### Response 1000 to 10000 nM

### Prompt Please give the result for O=C(Nc1c2c(cc3c1CCC3)CCC2)NS(=O)(=O)C1CN(Cc2cccnc2Br)C1 [Example 105, potassium salt] too.
### Response > 10000 nM

### Prompt Please give the result for CC(C(F)F)N1CC(S(=O)(=O)NC(=O)Nc2c3c(cc4c2CCC4)CCC3)C1 (centres unmarked) [Example 131, potassium salt] too.
### Response 1000 to 10000 nM

### Prompt Please give the result for `COc1cc(-c2cc(F)cc(C(C)C)c2NC(=O)NS(=O)(=O)C2CN(C3CCC3)C2)ccn1` too.
### Response < 1000 nM

### Prompt Please give the result for CC(C)N1CC(S(=O)(=O)NC(=O)Nc2c3c(cc4c2CCC4)CCC3)C1 [Example 46, potassium salt] too.
### Response < 1000 nM

### Prompt Please give the result for CCC(CC)N1CC(S(=O)(=O)NC(=O)Nc2c3c(cc4c2CCC4)CCC3)C1 [Example 65, potassium salt] too.
### Response < 1000 nM

### Prompt Please give the result for O=C(Nc1c2c(cc3c1CCC3)CCC2)NS(=O)(=O)C1CN(Cc2ccccc2)C1 [Example 72, potassium salt] too.
### Response 1000 to 10000 nM

### Prompt Please give the result for O=C(Nc1c2c(cc3c1CCC3)CCC2)NS(=O)(=O)C1CN(CC2CCOC2)C1 (centres unmarked) [Example 144, potassium salt] too.
### Response 1000 to 10000 nM

### Prompt Please give the result for O=C(Nc1c2c(cc3c1CCC3)CCC2)NS(=O)(=O)C1CN(CC2CC2)C1 [Example 94, potassium salt] too.
### Response < 1000 nM

Cited source: patent US20250115591A1
